Test system: R275C/beta4
Assay: modulators of BK channel variants, profiling panel, selectivity assay, cell-based, U2OS BacMam, thallium flux, beta subunits (AID 1259406);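 also: initial slope of Thallos dye fluorescence rise after thallium is added; log ratio against the mean of 0.3% DMSO vehicle wells on the same plate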
Details: at 30 µM
readout.type: log fold change Tl+ flux
Form: value (number only, do not type unit).

Give the measured log fold change Tl+ flux of c1ccc2c(c1)Nc1ccccc1S2 .
-0.0162

Give the measured log fold change Tl+ flux of CC(C)c1cccc(C(C)C)c1O .
-0.0411

Give the measured log fold change Tl+ flux of CN(C)[C@@H]1C(=O)C(C(N)=O)=C(O)[C@@]2(O)C(=O)C3=C(O)c4c(O)cccc4[C@@](C)(O)[C@H]3[C@H](O)[C@@H]12 .
0.0299

Give the measured log fold change Tl+ flux of CCN(CC)CCOC(=O)C(O)(c1ccccc1)c1ccccc1 .
0.00187

Give the measured log fold change Tl+ flux of C[N+]1(CCC(C(N)=O)(c2ccccc2)c2ccccc2)CCCCC1 .
-0.0252

Give the measured log fold change Tl+ flux of CC[C@@H]1C=CC=CC[C@H](C)[C@@H](O)[C@@H](C)C(=O)[C@H](C)[C@@H](O)[C@H](C)C(=O)[C@H](C)[C@@H](O)[C@H](C)C=CC(=O)O[C@H]2[C@@H](C)[C@@H](CC1)O[C@@]1(CC[C@@H](C)[C@@H](C[C@H](C)O)O1)[C@@H]2C .
-0.0178

Give the measured log fold change Tl+ flux of O=C(O)CCCc1ccc(N(CCCl)CCCl)cc1 .
-0.00696

Give the measured log fold change Tl+ flux of O=C1CN=C(c2ccccc2)c2cc([N+](=O)[O-])ccc2N1 .
0.0133

Give the measured log fold change Tl+ flux of C=CCN1CC[C@]23c4c5ccc(O)c4O[C@H]2C(=O)CC[C@@]3(O)[C@H]1C5 .
0.00421

Give the measured log fold change Tl+ flux of C[C@]12CC(=CO)C(=O)C[C@@H]1CC[C@@H]1[C@@H]2CC[C@@]2(C)[C@H]1CC[C@]2(C)O .
0.148

Give the measured log fold change Tl+ flux of O=c1[nH]c(=S)[nH]c(O)c1C=C1C=CC=N1 .
0.0391

Give the measured log fold change Tl+ flux of CC(C)N(CCC(C(N)=O)(c1ccccc1)c1ccccn1)C(C)C (centres undefined) .
-0.0304

Give the measured log fold change Tl+ flux of COc1ccc2[nH]cc(C3=CCNCC3)c2c1 .
0.0779

Give the measured log fold change Tl+ flux of CC(O)(CS(=O)(=O)c1ccc(F)cc1)C(=O)Nc1ccc(C#N)c(C(F)(F)F)c1 (centres undefined) .
0.0752

Give the measured log fold change Tl+ flux of NC(=O)CS(=O)C(c1ccccc1)c1ccccc1 (centres undefined) .
0.0208

Give the measured log fold change Tl+ flux of CC1CCC[C@H](O)CCCCCc2cc(O)cc(O)c2C(=O)O1 (some centres undefined) .
0.0349

Give the measured log fold change Tl+ flux of NCCc1ccccn1 .
-0.0421

Give the measured log fold change Tl+ flux of Clc1ccc(COC(Cn2ccnc2)c2ccc(Cl)cc2Cl)c(Cl)c1 (centres undefined) .
0.0768

Give the measured log fold change Tl+ flux of CCC1(c2ccc(N)cc2)CCC(=O)NC1=O (centres undefined) .
0.0132

Give the measured log fold change Tl+ flux of Oc1cc(Cl)ccc1Oc1ccc(Cl)cc1Cl .
0.0409

Give the measured log fold change Tl+ flux of CN1CCN(C(=O)O[C@H]2c3nccnc3C(=O)N2c2ccc(Cl)cn2)CC1 .
0.00608

Give the measured log fold change Tl+ flux of O=c1c2ccccc2[nH]c(=S)n1-c1ccccc1 .
0.00834

Give the measured log fold change Tl+ flux of Cc1ccc(-c2nc3ccc(C)cn3c2CC(=O)N(C)C)cc1 .
0.00879

Give the measured log fold change Tl+ flux of COc1ccc(CCN)cc1OC .
-0.0169

Give the measured log fold change Tl+ flux of CCOC(=O)C1(c2ccccc2)CCN(CCC(C#N)(c2ccccc2)c2ccccc2)CC1 .
-0.00148

Give the measured log fold change Tl+ flux of CCOC(=O)c1cncn1[C@H](C)c1ccccc1 .
0.0313

Give the measured log fold change Tl+ flux of COc1cc2c(cc1OC)[C@@]13CCN4CC5=CCO[C@H]6CC(=O)N2[C@H]1[C@H]6[C@H]5C[C@H]43 .
-0.00487

Give the measured log fold change Tl+ flux of Cc1ncc2n1-c1ccc(Cl)cc1C(c1ccccc1F)=NC2 .
0.138

Give the measured log fold change Tl+ flux of Cc1nnc2n1-c1ccc(Cl)cc1C(c1ccccc1)=NC2 .
0.0351

Give the measured log fold change Tl+ flux of O=C(O)C(Cl)Cl .
-0.0167

Give the measured log fold change Tl+ flux of CN1C(=O)COc2c(C(=O)NC3CN4CCC3CC4)cc(Cl)cc21 (centres undefined) .
-0.016

Give the measured log fold change Tl+ flux of CN1CC[C@@H](c2ccc(F)cc2)[C@H](COc2ccc3c(c2)OCO3)C1 .
0.0863

Give the measured log fold change Tl+ flux of CC(C)[C@]12O[C@H]1[C@@H]1O[C@]13[C@]1(O[C@H]1C[C@H]1C4=C(CC[C@@]13C)C(=O)OC4)[C@@H]2O .
0.0135

Give the measured log fold change Tl+ flux of CNCC(O)c1ccc(O)cc1 (centres undefined) .
-0.013
